- assay explanation: yeast display, Sf9 membrane polyspecificity reagent, FACS + sequencing; frameworks hold sequencing errors
readout: polyreactivity (PSR sort gate)

# ordered residues, polyreactivity (PSR sort gate)
records = [
    ("QVQLVESGGGLVQAVGSLRLSFAASGFTFGRNSLGWYRQAPGKERELVAAMTSRVGSTYYADSVKGRFTISRDKAKNTLYLQMNSLKPEDTAVYYCAAVKGPERPTTPYDYWGQGTQVTVSS", "high polyreactivity"),
    ("QVQLVESGAGLVQAGGSLRLSCAASGSTFDAYALGWSRPAPGKERELVAGISSGGSYEFADSVKGRFTISRDYAKNTVYVQMNSLKPEDTAVYYCAADSRQSDYYYQPTKFDYWGQGTQVTVSS", "low polyreactivity"),
    ("QVQLVESGGGLVQAGGSLRLSCAASGTTLVIYAMGWYRQAPGKERELVAAINFSDGSTSYADSVKGRFTKSRDNAKNTVYLQMISLKPEDTAVYYWGQGTQVTVSS", "low polyreactivity"),
    ("QVHLVESGGGLVQAGGSLRLSCAASGSTFYYNAMGWYRLAPGKERELVASISYSGDSTYYADSVKGRFTISRVNAKNTVYLQMNSLKPEDTAVYYCNASTSFRSHLGFLYDYWGQGTQVTVSS", "high polyreactivity"),
    ("QVQLVESGGGLVQAGGSLRLSCAASGRIFNAYAMGWYRQAPGKERELVASISWSGGSTFYADSVKGRFTISRDNAKNTVYLQMNSLKPEDTAVYYCNADRRSSRHWWSITAYEYWGQGTQVTVSS", "high polyreactivity"),
    ("QVQLVESGGGLVQAGGSLRLSWAASGITFATKAMGWYRQAPGKERELVAGITSGGSTYYADSVKGRFTISRDNAKNTVYLQMNSLQPEDTAVYYCANRYHYWYGTGYDYWGQGTQVTVSS", "low polyreactivity"),
]

# get_value(readout='polyreactivity (PSR sort gate)', item= QVHLVESGGGLVQAGGSLRLSCAASGRIFNWYVMGWYRQAPGKERELVAAITSGGITKYADSVKGRFTISRDNAKNTVYLQMNSLKPEDTAVYYCAAYYRRYDYDYWGQGSQVTVSS )
high polyreactivity

# get_value(readout='polyreactivity (PSR sort gate)', item= QVQLVESGGGLVQAGGSLRLICAASGGTFRYYTMVWYRQAPGKERELVAAITRGGRTYYADSVKGRFTISRDNAKNTVYIQMNSLKPEDTAVYYCAGVRPRSPVSYENDYWGQGTQVTVSS )
high polyreactivity

# get_value(readout='polyreactivity (PSR sort gate)', item= QVQHVESGGGLVQAGGSLRLSCAASGNIFTRNPMGWYRQAPGKERELVAAINYSGGSTYYADSVKGRFTISRDNAKNTVYLQMNSLKPEDTAVYYCAKDYAPSTDSYDYWGQGTQVTVSS )
low polyreactivity

# get_value(readout='polyreactivity (PSR sort gate)', item= QFQLVESGGRLDQAGGSLRLSCAASSSIFDDYAMGWYRQAPGKERELVAAISWSGGSTYYADSVQGRFTISRDNPNHTVYLQMNSLKREDTAVYYCAAYAYDYLYGEYYWGQGTQVTVSS )
low polyreactivity

# get_value(readout='polyreactivity (PSR sort gate)', item= QVQLVESGGGLVQAGGSLRLSCAASGSIFGTNAMGGYRQAPGKERELVAAIRGSGGRTYYADSVKGRFTISRDKAKNTVYLEMNSLKPEDSAVYYCAAPGNPYCWGYNYYYWGQGTQVTVSS )
high polyreactivity

Where do the numbers come from? From the nanobody polyreactivity screen of Harvey et al. (2022).
